Tested on: AChE1 activity of extracts of Culex pipiens larvae resistant to propoxur (G119S-mutated AChE)
test: biochemical
condition_parameters: IC50 on larval extracts, sensitive relative to resistant
value_kind: Sensitive/resistant ratio

{"compound": "Cc1ccc(C=C2C(=O)N(C)C(=O)N(C)C2=O)o1", "Sensitive/resistant ratio": 9.8}

Inquiry: Could you share which Sensitive/resistant ratio value was measured for Cc1ccc(C=C2C(=O)NC(=O)N(c3ccc(Br)cc3)C2=O)s1 ?
Reply text: 15.0

---

target_of_assay: AChE1 activity of extracts of Culex pipiens larvae resistant to propoxur (G119S-mutated AChE) (Culex pipiens, UniProt Q86GC8, G247S)
test: biochemical
value_kind: pIC50
The scale used: pIC50 is minus the common logarithm of the concentration in molar units.

{"compound": "COc1cccc(N2C(=O)NC(=O)C(=Cc3ccc(C)o3)C2=O)c1", "readout_value": 5.22}
{"compound": "CCCCN1C(=O)NC(=O)C(=Cc2ccc(C)s2)C1=O", "readout_value": 3.82}
{"compound": "COc1ccc(N2C(=O)NC(=O)C(=Cc3ccc(C)o3)C2=O)cc1", "readout_value": 4.09}
{"compound": "Cc1ccc(C=C2C(=O)NC(=O)N(c3ccccc3)C2=O)o1", "readout_value": 5.21}
{"compound": "Cc1ccc(C=C2C(=O)NC(=O)N(c3ccc(Br)cc3)C2=O)s1", "readout_value": 3.85}

Inquiry: Could you share which pIC50 value was measured for CCOc1ccc(N2C(=O)NC(=O)C(=Cc3ccc(C)o3)C2=O)cc1 ?
Reply text: 4.05

Inquiry: Likewise for Cc1ccc(C=C2C(=O)NC(=O)N(Cc3ccco3)C2=O)o1 ?
Reply text: 4.43

Inquiry: Likewise for C=CCN1C(=O)C(=Cc2ccc(C)o2)C(=O)NC1=S ?
Reply text: 4.29

Inquiry: Likewise for Cc1ccc(C=C2C(=O)NC(=O)N(c3ccc(C)c(C)c3)C2=O)o1 ?
Reply text: 4.46

Inquiry: Likewise for CNC(=O)Oc1ccccc1OC(C)C [Propoxur, propoxur, reference compound] ?
Reply text: 1.50

Inquiry: Likewise for Cc1cccc(N2C(=O)NC(=O)C(=Cc3ccc(C)s3)C2=O)c1 ?
Reply text: 4.55

---

target_of_assay: G119S-mutated recombinant Culex pipiens AChE1 (Culex pipiens, UniProt Q86GC8, G247S)
test: biochemical
value_kind: IC50 (µM)
The reply should be a number in µM, with the unit left off.

These solved cases illustrate the format of a correct answer.
{"compound": "Cc1ccc(C=C2C(=O)NC(=O)N(c3ccc(C(C)C)cc3)C2=O)o1", "units": "µM", "readout_value": 72}
{"compound": "Cc1ccc(C=C2C(=O)NC(=O)N(c3ccc(Cl)cc3)C2=O)o1", "units": "µM", "readout_value": 43}
{"compound": "CNC(=O)Oc1ccccc1OC(C)C [Propoxur, propoxur, reference compound]", "units": "µM", "readout_value": 6350}
{"compound": "COc1cccc(N2C(=O)NC(=O)C(=Cc3ccc(C)o3)C2=O)c1", "units": "µM", "readout_value": 3.5}
{"compound": "Cc1ccc(C=C2C(=O)N(C)C(=O)N(C)C2=O)o1", "units": "µM", "readout_value": 31}
{"compound": "O=C1NC(=O)N(c2ccccc2)C(=O)C1=Cc1ccco1", "units": "µM", "readout_value": 737}

Inquiry: Could you share which IC50 value was measured for Cc1ccc(C=C2C(=O)NC(=O)N(c3ccc(Cl)cc3)C2=O)s1 ?
Reply text: 8.7

Inquiry: Likewise for COc1cccc(N2C(=O)NC(=O)C(=Cc3ccc(C)s3)C2=O)c1 ?
Reply text: 62

Inquiry: Likewise for Cc1cccc(N2C(=O)NC(=O)C(=Cc3ccc(C)s3)C2=O)c1 ?
Reply text: 43

Inquiry: Likewise for Cc1ccc(C=C2C(=O)NC(=O)N(c3ccc(C)c(C)c3)C2=O)o1 ?
Reply text: 8.5

Inquiry: Likewise for Cc1ccc(C=C2C(=O)NC(=O)N(c3ccc(Br)cc3)C2=O)s1 ?
Reply text: 11.1

---

target_of_assay: AChE1 activity of extracts of Culex pipiens larvae sensitive to propoxur (normal AChE) (Culex pipiens, UniProt Q86GC8)
Construct: from tissue; host or cells: whole larvae of propoxur-sensitive Culex pipiens, Triton X100 homogenate supernatant
test: Inhibition of AChE1 activity in extracts of propoxur-sensitive mosquito larvae
Format: biochemical
condition_parameters: extracts of propoxur-sensitive larvae, 15 minutes incubation; read-out: IC50, Sensitive larvae
value_kind: log10 IC50 (log10 of the value in µM)
# log10 transformed; quantity=IC50; unit=µM

{"compound": "CCCCN1C(=O)NC(=O)C(=Cc2ccc(C)s2)C1=O [(20)]", "log10 IC50": 2.18}
{"compound": "CCOc1ccc(N2C(=O)NC(=O)C(=Cc3ccc(C)o3)C2=O)cc1 [(13)]", "log10 IC50": 2.37}
{"compound": "Cc1ccc(C=C2C(=O)NC(=O)N(c3ccc(C)c(C)c3)C2=O)o1 [(17)]", "log10 IC50": 2.63}
{"compound": "CCc1ccc(N2C(=O)NC(=O)C(=Cc3ccc(C)o3)C2=O)cc1 [(19)]", "log10 IC50": 2.49}
{"compound": "COc1cccc(N2C(=O)NC(=O)C(=Cc3ccc(C)o3)C2=O)c1 [(12)]", "log10 IC50": 1.73}
{"compound": "COc1ccc(N2C(=O)NC(=O)C(=Cc3ccc(C)o3)C2=O)cc1 [(5)]", "log10 IC50": 2.77}
{"compound": "Cc1ccc(N2C(=O)NC(=O)C(=Cc3ccc(C)o3)C2=O)cc1 [(11)]", "log10 IC50": 2.05}
{"compound": "Cc1ccc(C=C2C(=O)NC(=O)N(c3ccc(C(C)C)cc3)C2=O)o1 [(7)]", "log10 IC50": 2.12}

Inquiry: Could you share which log10 IC50 value was measured for Cc1ccc(C=C2C(=O)N(C)C(=O)N(C)C2=O)o1 [(4)] ?
Reply text: 1.87

Inquiry: Likewise for Cc1ccc(C=C2C(=O)NC(=O)N(c3ccc(Cl)cc3)C2=O)s1 [(15)] ?
Reply text: 3.09

---

Tested on: AChE1 activity of extracts of Culex pipiens larvae resistant to propoxur (G119S-mutated AChE)
test: biochemical
condition_parameters: IC50 on larval extracts, sensitive relative to resistant
Classification field. Basis: Sensitive/resistant ratio. Definitions: LOW: < 5; MID: ≥ 5 and < 10; HIGH: ≥ 10

{"molecule": "CCOc1ccc(N2C(=O)NC(=O)C(=Cc3ccc(C)o3)C2=O)cc1 [(13)]", "category_label": "LOW"}

Alright, here's another molecule for you.
Inquiry: Which bin, given its Sensitive/resistant ratio, does Cc1ccc(C=C2C(=O)NC(=O)N(c3ccc(F)cc3)C2=O)s1 [(16)] occupy?
Reply text: HIGH

---

System: larvae of mosquitoes Culex pipiens sensitive to propoxur
test: Insecticidal activity: larval mortality, propoxur-sensitive larvae
Format: in vivo
condition_parameters: stage-4 larvae, mortality after 24 hours, log-Probit, read-out: LD50, Sensitive larvae
The label is yes for LC50 below 300 µM and no for LC50 equal to or exceeding 300 µM.

Study these solved cases before continuing.
{"compound": "C=CCN1C(=O)C(=Cc2ccc(C)o2)C(=O)NC1=S", "category_label": "yes"}
{"compound": "CNC(=O)Oc1ccccc1OC(C)C [Propoxur, propoxur, reference compound]", "category_label": "yes"}
{"compound": "Cc1ccc(C=C2C(=O)N(C)C(=O)N(C)C2=O)o1", "category_label": "no"}
{"compound": "Cc1ccc(C=C2C(=O)NC(=O)N(c3ccccc3)C2=O)o1", "category_label": "no"}
{"compound": "COc1cccc(N2C(=O)NC(=O)C(=Cc3ccc(C)s3)C2=O)c1", "category_label": "no"}
{"compound": "Cc1cccc(N2C(=O)NC(=O)C(=Cc3ccc(C)s3)C2=O)c1", "category_label": "no"}

Alright, here's another compound for you.
Inquiry: Dear reviewer, please state whether Cc1ccc(C=C2C(=O)NC(=O)N(c3ccc(Cl)cc3)C2=O)o1 has LC50 strictly beneath 300 µM.
Reply text: no

---

Test system: larvae of mosquitoes Culex pipiens resistant to propoxur
test: Insecticidal activity: larval mortality, propoxur-resistant larvae
Format: in vivo
condition_parameters: LD50 larval mortality, sensitive relative to resistant
The label is 1.0 for Sensitive/resistant ratio below 2 and 0.0 for Sensitive/resistant ratio equal to or exceeding 2.

Study these solved cases before continuing.
{"compound": "Cc1ccc(C=C2C(=O)N(C)C(=O)N(C)C2=O)o1 [(4)]", "category_label": 0.0}
{"compound": "COc1ccc(N2C(=O)NC(=O)C(=Cc3ccc(C)o3)C2=O)cc1 [(5)]", "category_label": 1.0}

Alright, here's another compound for you.
Inquiry: Dear reviewer, please state whether Cc1ccc(C=C2C(=O)NC(=O)N(c3ccc(Cl)cc3)C2=O)o1 [(6)] has Sensitive/resistant ratio strictly beneath 2.
Reply text: 0.0

---

Entries and their IC50 values follow.
target_of_assay: AChE1 activity of extracts of Culex pipiens larvae sensitive to propoxur (normal AChE) (Culex pipiens)
Construct: from tissue; host or cells: whole larvae of propoxur-sensitive Culex pipiens, Triton X100 homogenate supernatant
test: Inhibition of AChE1 activity in extracts of propoxur-sensitive mosquito larvae
Type: biochemical
condition_parameters: extracts of propoxur-sensitive larvae, 15 minutes incubation; read-out: IC50, Sensitive larvae
Procedure: The inhibitory properties of the compounds of the preceding table I are tested with regard to the AChE activity by either using a normal or G119S-mutated recombinant AChE or using extracts of larvae of mosquitoes which are sensitive (carrying normal AChE) or resistant (carrying G119S-mutated AChE) to organophosphorus compounds and carbamates. […]
The reply should be a number in µM, with the unit left off.

These solved cases illustrate the format of a correct answer.
{"compound": "Cc1ccc(C=C2C(=O)NC(=O)N(c3ccc(Cl)cc3)C2=O)o1 [(6)]", "IC50, µM": 330}
{"compound": "C=CCN1C(=O)C(=Cc2ccc(C)o2)C(=O)NC1=S [(8)]", "IC50, µM": 91.6}
{"compound": "Cc1ccc(C=C2C(=O)NC(=O)N(c3ccc(Br)cc3)C2=O)s1 [(14)]", "IC50, µM": 2120}
{"compound": "Cc1ccc(C=C2C(=O)NC(=O)N(c3ccc(F)cc3)C2=O)s1 [(16)]", "IC50, µM": 490}

Please find the next compound below.
Inquiry: Could you share which IC50 value was measured for Cc1ccc(C=C2C(=O)NC(=O)N(Cc3ccco3)C2=O)o1 [(18)] ?
Reply text: 260
